assayTarget: T1, HIS-tagged B Lymphocyte Stimulator (human, UniProt Q9Y275 71-285)
T1 construct: Expressed in E. coli from pQE9 and purified; also called histidine-tagged B Lymphocyte Stimulator; HIS-B Lymphocyte Stimulator; not shown: histidine tag of the pQE9 vector
T1 sequence (Q9Y275 71-285): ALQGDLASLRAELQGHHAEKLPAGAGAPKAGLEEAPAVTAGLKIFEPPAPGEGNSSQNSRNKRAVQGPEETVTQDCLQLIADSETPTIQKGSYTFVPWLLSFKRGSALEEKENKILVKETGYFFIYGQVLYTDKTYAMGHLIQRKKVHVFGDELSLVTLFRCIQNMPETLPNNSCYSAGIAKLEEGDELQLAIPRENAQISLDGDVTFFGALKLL
assay: BIAcore, periplasmic scFv on high density HIS-BLyS surface

- binder: "I083G03 (scFv) scFv: QVQLVQSGAELKQPGTSVKVSCKASGYSFSSYGVTWVRQAPGQGLEWMGWVSGNRGNTQYAQKFQDRVRMTTDTSTSTAYMELRSLRPDDTDVYFCARVGIKAAAVDNFEYWGRGTTVTVSSGGGGSGGGGSGGGGSAQSVLTQPPSASGTPGQRVTITCSGSSSNIGDYYVNWYQQVSGTTPKLIIYRDDQRPSGVPDRFSGSKSGASASLAISGLRSEDEANYFCAAWDDSLREFAFGTGTKVTVLG"
  binding result: "binds"
- binder: "I079B12 (scFv) scFv: EVQLVQSRGGVVQPGRSLRLSCAASGLTFSSYGMHWVRQAPGKGLEWVAVISYDGRNKYYADSVKGRFTTSRDNSKNTLYLQMNSLRAEDTAVYYCAKWTSSGAFDIWGRGTLVTVSSGGGGSGGGGSGGGGSDIQMTQSPSTLSASIGDRVTITCRASEGIYHWLAWYQQKPGKAPKLLIYKASSLASGAPSRFSGSGSGTDFTLTISSLQPDDFATYYCHQYSNYPLTFGGGTKLEIKR"
  binding result: "binds"
- binder: "I080G07 (scFv) scFv: QVQLVQSGAEVKKPGASVKVSCKASGYTFTSYAMHWVRQAPGQRLEWMGWINAGNGNTKYSQKFQGRVTITRDTSASTAYMELSSLRSEDTAVYYCAREGPGYYYGMDVWGQGTMVTVSSGGGGSGGGGSGGGGSALETTLTQSPGTLSLSPGERATLSCRASQAIGSNYLAWYQQKPGQPPSLLIYGASSRATGIPDRFSASGSGTDFTLTISRLEPEDFAVYYCQQYGSSITFGQGTRLEIKR"
  binding result: "binds"
